Data provenance: patent US20210380703A1

In this section, each of the binders is paired with its reported optical density.
SYSTEM_UNDER_TEST: T1, Human ACVR2A (human, UniProt P27037 20-135, limits assumed); also: test concentration or dose not given here
T1 construct: also called activin receptor, type II A
ASSAY_NAME: ELISA
Give the number; OD is assumed, so skip it.

>  <BINDER>
367_E12 (antibody, V domains shown, VH/VL only) VH: EVQLLESGGGLVQPGGSLRLSCAASGFTFSSYGMHWVRQAPGKGLEWVASINYNGGYTSYADSVKGRFTISRDNSKNTLYLQMNSLRAEDTAVYYCARGATWHDTHLDYWGQGTLVTVSS VL: DIQMTQSPSSLSASVGDRVTITCRASQSILTYVNWYQQKPGKAPKLLIYAASSLQSGVPSRFSGSGSGTDFTLTISSLQPEDFATYYCQQSYNSPLTFGGGTKVEIK

>  <U>
OD

>  <optical density>
2.69

$$$$

From here, focus on the item given below.
Data point: 370_G08 (antibody, V domains shown, VH/VL only) VH: EVQLLESGGGLVQPGGSLRLSCAASGFTFSDYSMNWVRQAPGKGLEWVAGINYNGGYTGYADSVKGRFTISRDNSKNTLYLQMNSLRAEDTAVYYCARGATWHDTHLDYWGQGTLVTVSS VL: DIQMTQSPSSLSASVGDRVTITCRASQSILTYLNWYQQKPGKAPKLVIYAATSRASGVPSRFSGSGSGTDFTLTISSLQPEDFATYYCQQSYESPLTFGGGTKVEIK ; optical density = 3.21
